Can you tell me AUEC for the items I'm about to list?
tested on: Mus musculus; experiment: Area under the antinociceptive effect time curve after 2 mg/kg administration in mice.; assay type: functional
Response body: numeric value in %·min, unit text excluded.

Qu. I'm curious: which AUEC was measured for "O=C(O)[C@@H]1O[C@@H](O[C@H]2C=C[C@H]3[C@H]4Cc5ccc(O)c6c5[C@@]3(CCN4)[C@H]2O6)[C@@H](O)[C@@H](O)[C@@H]1O" tested on Mus musculus?
Ans. 393

Qu. Now give it for CN1CC[C@]23c4c5ccc(O)c4O[C@H]2[C@@H](OC2OC(CO)[C@H](O)C(O)C2O)C=C[C@H]3[C@H]1C5 (some centres not stated) too.
Ans. 1130

Qu. Now give it for CN1CCC23c4c5ccc(O)c4O[C@H]2[C@@H](OC2OC(C(=O)O)=CC(O)C2O)C=C[C@H]3[C@H]1C5 (some centres not stated) too.
Ans. 651

Qu. Now give it for CC1OC(O[C@H]2C=C[C@H]3[C@H]4Cc5ccc(O)c6c5C3(CCN4C)[C@H]2O6)C(O)C(O)C1O (some centres not stated) too.
Ans. 421

Qu. Now give it for "O=C(O)[C@@H]1O[C@@H](O[C@H]2C=C[C@H]3[C@H]4Cc5ccc(O)c6c5C3(CCN4CC3CC3)[C@H]2O6)[C@@H](O)[C@@H](O)[C@@H]1O" too.
Ans. 126

Qu. Now give it for "CN1CC[C@]23c4c5ccc(O)c4O[C@H]2[C@@H](O[C@@H]2O[C@H](C(=O)O)C[C@H](O)[C@@H]2O)C=C[C@H]3[C@H]1C5" too.
Ans. 35

Qu. Now give it for CN1CCC23c4c5ccc(O)c4O[C@H]2[C@@H](OC2C=CC(O)C(C(=O)O)O2)C=C[C@H]3[C@H]1C5 (some centres not stated) too.
Ans. 491

Qu. Now give it for "O=C(O)[C@@H]1O[C@@H](O[C@H]2CC[C@H]3[C@H]4Cc5ccc(O)c6c5[C@@]3(CCN4)[C@H]2O6)[C@@H](O)[C@@H](O)[C@@H]1O" too.
Ans. 2196

Qu. Now give it for "O=C(O)CN1CC[C@]23c4c5ccc(O)c4O[C@H]2[C@@H](O[C@@H]2O[C@@H](C(=O)O)[C@@H](O)[C@H](O)[C@@H]2O)C=C[C@H]3[C@H]1C5" too.
Ans. 266

Qu. Now give it for CN1CC[C@]23c4c5ccc(O)c4O[C@H]2[C@@H](OC2O[C@@H](C(=O)O)CC(O)C2O)C=C[C@H]3[C@H]1C5 (some centres not stated) too.
Ans. 18

Qu. Now give it for "CN1CCC23c4c5ccc(O)c4O[C@H]2[C@@H](O[C@@H]2O[C@H](C(=O)O)[C@@H](O)[C@H]2O)C=C[C@H]3[C@H]1C5" too.
Ans. -56

Qu. Now give it for "C=CCN1CC[C@]23c4c5ccc(O)c4O[C@H]2[C@@H](O[C@@H]2O[C@@H](C(=O)O)[C@@H](O)[C@H](O)[C@@H]2O)C=C[C@H]3[C@H]1C5" too.
Ans. 221

These entries and their values trace back to ChEMBL document CHEMBL1136668.
